Listed here: items and their measured Average Permeation Rate After 1 Hour (%).
assay: Skin permeability, Franz Cell diffusion cell with artificial skin, Transdermal Diffusion Tester, BCA assay; type: in vitro ADME; conditions: 32° C., 1.0 mg/mL in PBS, after 1 hour
Square brackets hold non-standard residues; d marks the D form. Peptide text beside a SMILES is read from it.

COMPOUND	Average Permeation Rate After 1 Hour (%)
CC(C)[C@H]1NC(=O)[C@@H]([C@H](C)O)NC(=O)[C@H](CCC(=O)O)NC(=O)[C@H]2CCCN2C(=O)[C@H]2CCCN2C(=O)[C@H](Cc2c[nH]c3ccccc23)NC1=O [Compound 3, Glu D-Thr D-Val Trp D-Pro D-Pro] (cyclo(E[dT][dV]W[dP][dP]))	19.61
CC(C)[C@H]1NC(=O)[C@@H](Cc2ccccc2)NC(=O)[C@@H](CCCNC(=N)N)NC(=O)[C@@H]2CCCN2C(=O)[C@H](CCC(=O)O)NC(=O)[C@H](Cc2ccc(O)cc2)NC1=O [Compound 1, D-Arg D-Phe D- Val Tyr Glu Pro] (cyclo(EP[dR][dF][dV]Y))	18.54
N=C(N)NCCC[C@@H]1NC(=O)[C@H]2CCCN2C(=O)[C@@H](Cc2c[nH]c3ccccc23)NC(=O)[C@H]2CCCN2C(=O)[C@H](CS)NC(=O)[C@H](Cc2ccc(O)cc2)NC(=O)[C@H](CC(=O)O)NC1=O [Compound 10, Arg Asp Tyr Cys D-Pro D-Trp D-Pro] (cyclo(C[dP][dW][dP]RDY))	18.96
CC(C)[C@H]1NC(=O)[C@@H]([C@H](C)O)NC(=O)[C@H](CCC(=O)O)NC(=O)[C@H](CCCNC(=N)N)NC(=O)[C@H](Cc2ccc(O)cc2)NC(=O)[C@H]2CCCN2C1=O [Compound 6, Tyr Arg Glu D-Thr D-Val D-Pro] (cyclo(E[dT][dV][dP]YR))	15.34

---

experiment: Skin permeability, Franz Cell diffusion cell with artificial skin, Transdermal Diffusion Tester, BCA assay; format: in vitro ADME; settings: after 1 hour, read-out: Average Permeability Coefficient (Kp) After 1 hour (converted)
Square brackets hold non-standard residues; d marks the D form. Peptide text beside a SMILES is read from it.
Criterion: Papp at 1 h, 1 mg/mL strictly under 9 ×10⁻⁶ cm/s. Met: rule met. Not met: rule not met.

COMPOUND	ASSIGNED_CLASS
CC(C)[C@H]1NC(=O)[C@H]([C@@H](C)O)NC(=O)[C@H](CCCNC(=N)N)NC(=O)[C@H]2CCCN2C(=O)[C@@H](Cc2ccccc2)NC(=O)[C@H](CCC(=O)O)NC1=O [Compound 2, Arg Thr D-Val Glu D-Phe D-Pro] (cyclo(E[dF][dP]RT[dV]))	rule met
CSCC[C@@H]1NC(=O)[C@H](Cc2c[nH]c3ccccc23)NC(=O)[C@@H]2CCCN2C(=O)[C@H](CCC(=O)O)NC(=O)[C@H](CCCNC(=N)N)NC(=O)[C@@H](CC(C)C)NC(=O)[C@@H]2CCCN2C1=O [Compound 8, D-Leu Arg Glu Pro Trp Met Pro] (cyclo(EPWMP[dL]R))	rule met
CC(C)[C@H]1NC(=O)[C@@H](Cc2ccccc2)NC(=O)[C@@H](CCCNC(=N)N)NC(=O)[C@@H]2CCCN2C(=O)[C@H](CCC(=O)O)NC(=O)[C@H](Cc2ccc(O)cc2)NC1=O [Compound 1, D-Arg D-Phe D- Val Tyr Glu Pro] (cyclo(EP[dR][dF][dV]Y))	rule not met
CC(C)C[C@@H]1NC(=O)[C@@H](C(C)C)NC(=O)[C@@H](Cc2c[nH]c3ccccc23)NC(=O)[C@@H](CC(C)C)NC(=O)[C@@H]2CCCN2C(=O)[C@H](C(C)C)NC(=O)[C@@H]2CCCN2C(=O)[C@H](CCCNC(=N)N)NC1=O [Compound 11, Val Pro D-Leu D-Trp D-Val Leu Arg Pro] (cyclo(LRPVP[dL][dW][dV]))	rule met
CC(C)C[C@@H]1NC(=O)[C@@H](CCCNC(=N)N)NC(=O)[C@@H]2CCCN2C(=O)[C@H](CCC(=O)O)NC(=O)[C@@H]([C@H](C)O)NC(=O)[C@H](Cc2c[nH]c3ccccc23)NC(=O)[C@@H](Cc2c[nH]c3ccccc23)NC1=O [Compound 9, D-Arg Leu D-Trp Trp D-Thr Glu Pro] (cyclo(EP[dR]L[dW]W[dT]))	rule not met
CC(C)[C@H]1NC(=O)[C@H](CCC(=O)O)NC(=O)[C@H](CCCNC(=N)N)NC(=O)[C@H]2CCCN2C(=O)[C@H]2CCCN2C(=O)[C@H](Cc2c[nH]c3ccccc23)NC1=O [Compound 4, Arg Glu D-Val Trp D-Pro D-Pro] (cyclo(E[dV]W[dP][dP]R))	rule not met
CC(C)C[C@H]1NC(=O)[C@@H]2CCCN2C(=O)[C@@H](Cc2ccccc2)NC(=O)[C@H](CCCNC(=N)N)NC(=O)[C@H]([C@@H](C)O)NC(=O)[C@H]2CCCN2C1=O [Compound 7, Thr Arg D-Phe Pro D-Leu D-Pro] (cyclo(P[dL][dP]TR[dF]))	rule not met

---

This section presents compounds with their documented Papp at 1 h, 1 mg/mL values.
assay: Skin permeability, Franz Cell diffusion cell with artificial skin, Transdermal Diffusion Tester, BCA assay; format: in vitro ADME; conditions: after 1 hour, read-out: Average Permeability Coefficient (Kp) After 1 hour (converted)
Square brackets hold non-standard residues; d marks the D form. Peptide text beside a SMILES is read from it.
METRIC_NAME: Papp at 1 h, 1 mg/mL (×10⁻⁶ cm/s)

COMPOUND	DATA_VALUE
CC(C)[C@H]1NC(=O)[C@@H]([C@H](C)O)NC(=O)[C@H](CCC(=O)O)NC(=O)[C@H]2CCCN2C(=O)[C@H]2CCCN2C(=O)[C@H](Cc2c[nH]c3ccccc23)NC1=O [Compound 3, Glu D-Thr D-Val Trp D-Pro D-Pro] (cyclo(E[dT][dV]W[dP][dP]))	11.7
CC(C)[C@H]1NC(=O)[C@@H]([C@H](C)O)NC(=O)[C@H](CCC(=O)O)NC(=O)[C@H](CCCNC(=N)N)NC(=O)[C@H](Cc2ccc(O)cc2)NC(=O)[C@H]2CCCN2C1=O [Compound 6, Tyr Arg Glu D-Thr D-Val D-Pro] (cyclo(E[dT][dV][dP]YR))	9.14
N=C(N)NCCC[C@@H]1NC(=O)[C@H]2CCCN2C(=O)[C@@H](Cc2c[nH]c3ccccc23)NC(=O)[C@H]2CCCN2C(=O)[C@H](CS)NC(=O)[C@H](Cc2ccc(O)cc2)NC(=O)[C@H](CC(=O)O)NC1=O [Compound 10, Arg Asp Tyr Cys D-Pro D-Trp D-Pro] (cyclo(C[dP][dW][dP]RDY))	11.7
CC(C)[C@@H]1NC(=O)[C@H](Cc2c[nH]c3ccccc23)NC(=O)[C@H]2CCCN2C(=O)[C@H]2CCCN2C(=O)[C@H](CCC(=O)O)NC(=O)[C@H](CCCNC(=N)N)NC1=O [Compound 5, Trp Val Arg Glu D-Pro D-Pro] (cyclo(E[dP][dP]WVR))	13.4

---

experiment: Skin permeability, Franz Cell diffusion cell with artificial skin, Transdermal Diffusion Tester, BCA assay; assay type: in vitro ADME; conditions: 32° C., 1.0 mg/mL in PBS, after 1 hour
Square brackets hold non-standard residues; d marks the D form. Peptide text beside a SMILES is read from it.
METRIC_NAME: Average Permeation Rate After 1 Hour (%)

MOLECULE	METRIC_NAME	DATA_VALUE
CC(C)C[C@@H]1NC(=O)[C@@H](C(C)C)NC(=O)[C@@H](Cc2c[nH]c3ccccc23)NC(=O)[C@@H](CC(C)C)NC(=O)[C@@H]2CCCN2C(=O)[C@H](C(C)C)NC(=O)[C@@H]2CCCN2C(=O)[C@H](CCCNC(=N)N)NC1=O [Compound 11, Val Pro D-Leu D-Trp D-Val Leu Arg Pro] (cyclo(LRPVP[dL][dW][dV]))	Average Permeation Rate After 1 Hour (%)	11.77
CC(C)[C@H]1NC(=O)[C@H]([C@@H](C)O)NC(=O)[C@H](CCCNC(=N)N)NC(=O)[C@H]2CCCN2C(=O)[C@@H](Cc2ccccc2)NC(=O)[C@H](CCC(=O)O)NC1=O [Compound 2, Arg Thr D-Val Glu D-Phe D-Pro] (cyclo(E[dF][dP]RT[dV]))	Average Permeation Rate After 1 Hour (%)	14.62
CSCC[C@@H]1NC(=O)[C@H](Cc2c[nH]c3ccccc23)NC(=O)[C@@H]2CCCN2C(=O)[C@H](CCC(=O)O)NC(=O)[C@H](CCCNC(=N)N)NC(=O)[C@@H](CC(C)C)NC(=O)[C@@H]2CCCN2C1=O [Compound 8, D-Leu Arg Glu Pro Trp Met Pro] (cyclo(EPWMP[dL]R))	Average Permeation Rate After 1 Hour (%)	12.44
CC(C)[C@H]1NC(=O)[C@H](CCC(=O)O)NC(=O)[C@H](CCCNC(=N)N)NC(=O)[C@H]2CCCN2C(=O)[C@H]2CCCN2C(=O)[C@H](Cc2c[nH]c3ccccc23)NC1=O [Compound 4, Arg Glu D-Val Trp D-Pro D-Pro] (cyclo(E[dV]W[dP][dP]R))	Average Permeation Rate After 1 Hour (%)	17.28
